The measurements presented in this section are drawn from ChEMBL document CHEMBL6178021.

Test system: Plasmodium falciparum
assay name: microbe, parasite or virus in culture
test parameters: Dd2, 72 h
Description: Antiplasmodial activity against asexual blood-stage Plasmodium falciparum Dd2 using 2% haematocrit and 0.2% parasitemia assessed as reduction in fluorescence measured after 72 hrs by Malaria SYBR Green I-based Fluorescence (MSF) assay
value kind: pIC50
Just the number, please; pIC50 means minus log10 of the concentration in mol/L.

CCC1=C(CC)/C(=C/NC23C[C@H]4C[C@@H](C2)C[C@@H](C3)C4)N=C1c1ccc(C)[nH]1    9.08
CCC1=C(CC)/C(=C/NC2CCCCC2)N=C1c1ccc(CC)[nH]1    8.36
CCC1=C(CC)/C(=C/NC2CCCCCC2)N=C1c1ccc(Cc2ccc(OC)cc2)[nH]1    8.07
COc1ccc(C2=C(c3ccc(OC)cc3)/C(=C/NC3CCCCC3)N=C2c2ccc[nH]2)cc1    6.46
COC1=C(OC)/C(=C/NC2CCCCC2)N=C1c1ccc[nH]1    7.13

Ask | GET /values?readout=pIC50&item= C(/NC1CCCCCC1)=C1/N=C(c2ccc[nH]2)C2=C1OCCO2
Reply | 7.59

Ask | GET /values?readout=pIC50&item= CCC1=C(CC)/C(=C/NC2CCCCC2)N=C1c1ccc(-c2ccccc2)[nH]1
Reply | 7.56

Ask | I have this compound here, CCC1=C(CC)/C(=C/NC23C[C@H]4C[C@@H](C2)C[C@@H](C3)C4)N=C1c1ccccc1OCCN(CC)CC , and I need its recorded pIC50.
Reply | 6.11

Ask | Tell me the measured pIC50 of COc1ccc(OC2=C(Oc3ccc(OC)cc3)/C(=C/NC34C[C@H]5C[C@@H](C3)C[C@@H](C4)C5)N=C2c2ccc[nH]2)cc1 , please.
Reply | 6.95

Ask | So what does the record say about pIC50 for C(/NC12C[C@H]3C[C@@H](C1)C[C@@H](C2)C3)=C1/N=C(c2ccc[nH]2)C(Oc2ccccc2)=C1Oc1ccccc1 ?
Reply | 6.10

Ask | Which pIC50 is reported for this compound? CCc1c(CNC23CC4CC(CC(C4)C2)C3)[nH]c(-c2ccc[nH]2)c1CC
Reply | 6.12

Ask | Using the record for CCC1=C(CC)/C(=C/NC2CCCCC2)N=C1c1ccccc1OCCN(C)C , report its pIC50.
Reply | 5.86

Ask | Which pIC50 is listed for C(/NC12C[C@H]3C[C@@H](C1)C[C@@H](C2)C3)=C1/N=C(c2ccc[nH]2)C(c2ccccc2)=C1c1ccccc1 ?
Reply | 6.44

Ask | Could you tell me which pIC50 is on file for CCC1=C(C)/C(=C/NC2CCCCCC2)N=C1c1ccc(CC)[nH]1 ?
Reply | 7.97

Ask | Can you share its pIC50? I mean this compound: CCC1=C(CC)/C(=C/NC2CCCCC2)N=C1c1ccccc1OCCN(CC)CC
Reply | 6.12

Ask | Request the reported pIC50 associated with CCc1ccc(C2=N/C(=C\NC3CCCCCC3)C3=C2OCCO3)[nH]1
Reply | 7.78
